SYSTEM: UniProtKB P21554
ASSAY_NAME: cell-based
Parameters: host or cells: CHO-K1 PathHunter
EXPERIMENTAL_CONTEXT: CB1, PAM mode; read-out: CB1 PAM mode β-Arrestin EC50
pEC50: −log10 of the molar value.
EXPERIMENTAL_ENDPOINT: pEC50

Worked set:
| MOLECULE | EXPERIMENTAL_ENDPOINT | MEASURED |
| --- | --- | --- |
| Cc1ccc2c(C(CCC(=O)O)c3ccccc3)cn(-c3ccccc3)c2c1 (stereo not drawn) [Compound 17] | pEC50 | < 5.00 |
| O=C(O)CCC(c1ccccc1)c1c[nH]c2ccccc12 (stereo not drawn) [Compound 28, 4-(1H-Pndol-3-yl)-4-phenylbutanoic acid] | pEC50 | < 5.00 |
| O=C(O)CC=C(c1ccccc1)c1cn(-c2ccccc2)c2ccccc12 (mixture of isomers) [Compound 16] | pEC50 | < 5.00 |

The molecule O=C(O)CCC(c1ccccc1)c1cn(Cc2ccccc2)c2ccccc12 (stereo not drawn) [Compound 18] showed pEC50 equal to < 5.00

The molecule O=C(O)CC(c1ccccc1)c1cn(-c2ccccc2)c2ccccc12 (stereo not drawn) [Compound 8] showed pEC50 equal to < 5.00

The molecule CC(=O)CC(C)C(c1ccccc1)c1cn(-c2ccccc2)c2ccccc12 (stereo not drawn) [Compound 41] showed pEC50 equal to < 5.00

The molecule CC(CC(c1ccccc1)c1cn(-c2ccccc2)c2ccccc12)C(=O)O (racemic) [Compound 11] showed pEC50 equal to < 5.00

The molecule OCCCC(c1ccccc1)c1cn(-c2ccccc2)c2ccccc12 (stereo not drawn) [Compound 34] showed pEC50 equal to < 5.00

The molecule OCC(c1ccccc1)c1cn(-c2ccccc2)c2ccc(Cl)cc12 (stereo not drawn) [Compound 35] showed pEC50 equal to < 5.00

----------
# maps each entry to its Emax
SYSTEM: hCB1 (Homo sapiens)
ASSAY_NAME: cell-based
Parameters: host or cells: CHO-K1
EXPERIMENTAL_CONTEXT: read-out: CB1 PAM mode cAMP Emax, CB1, PAM mode
Response body: numeric value in %, unit text excluded.

| COMPOUND | SCALE_UNIT | MEASURED |
| --- | --- | --- |
| Cc1ccc2c(C(CCC(=O)O)c3ccccc3)cn(-c3ccccc3)c2c1 (stereo not shown) [Compound 17] | % | 93 |
| NC(=O)CC(c1ccccc1)c1cn(-c2ccccc2)c2ccccc12 (stereo not shown) [Compound 38] | % | 27.1 |
| O=C(c1ccccc1)c1cn(-c2ccccc2)c2ccccc12 [Compound 40, Phenyl(1-phenyl-1H-indol-3-yl)methanone] | % | 11.7 |

The compound O=C(O)/C=C\C(c1ccccc1)c1cn(-c2ccccc2)c2ccccc12 (stereo not shown) [Compound 15] showed Emax equal to 84

----------
SYSTEM: hCB1 (Homo sapiens, UniProt P21554)
Sequence (P21554 whole entry): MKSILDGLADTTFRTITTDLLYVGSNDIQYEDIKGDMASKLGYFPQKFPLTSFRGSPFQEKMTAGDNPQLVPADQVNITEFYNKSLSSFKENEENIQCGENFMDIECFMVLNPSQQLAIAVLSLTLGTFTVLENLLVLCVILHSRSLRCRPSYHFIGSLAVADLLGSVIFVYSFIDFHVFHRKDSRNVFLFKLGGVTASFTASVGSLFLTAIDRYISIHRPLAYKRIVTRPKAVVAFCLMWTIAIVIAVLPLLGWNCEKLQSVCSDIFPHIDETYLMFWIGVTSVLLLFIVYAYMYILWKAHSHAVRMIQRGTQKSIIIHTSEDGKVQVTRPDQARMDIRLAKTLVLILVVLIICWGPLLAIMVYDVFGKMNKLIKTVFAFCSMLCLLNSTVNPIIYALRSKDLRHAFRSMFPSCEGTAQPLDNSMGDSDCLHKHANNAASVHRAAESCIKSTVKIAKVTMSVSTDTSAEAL
ASSAY_NAME: cell-based
Set-up: host or cells: CHO-K1
EXPERIMENTAL_CONTEXT: read-out: CB1 PAM mode cAMP Emax, CB1, PAM mode
EXPERIMENTAL_ENDPOINT: Emax (%)
Response body: numeric value in %, unit text excluded.

Worked set:
| COMPOUND | SCALE_UNIT | Emax |
| --- | --- | --- |
| O=C(O)CCC(c1ccccc1)c1cn(-c2ccccn2)c2ccccc12 (centres unmarked) | % | 96 |
| O=C(O)CCC(c1ccccc1)c1cn(Cc2ccccc2)c2ccccc12 (centres unmarked) | % | 97 |

Let me check: CCOC(=O)CCC(c1ccccc1)c1cn(-c2ccccc2)c2ccccc12 (centres unmarked) , system hCB1 (Homo sapiens, UniProt P21554), measured Emax is 0

Let me check: O=C(O)CCCC(c1ccccc1)c1cn(-c2ccccc2)c2ccccc12 (centres unmarked) , system hCB1 (Homo sapiens, UniProt P21554), measured Emax is 98

Let me check: OCCC(c1ccccc1)c1cn(-c2ccccc2)c2ccccc12 (centres unmarked) , system hCB1 (Homo sapiens, UniProt P21554), measured Emax is 27.1

All values here come from patent US12486228B2.
